system: K562; assay: Cytotoxicity against human K562 cells by MTT assay; assay type: functional, cell-based
value_type: EC50 (nM)
Write down the numeric answer in nM and omit the unit.

// worked examples, EC50 included
CC(=O)OC[C@]12C[C@H](OC(=O)CC(C)C)C(C)=C[C@H]1O[C@@H]1[C@H](O)[C@@H](OC(C)=O)[C@@]2(C)[C@]12CO2 2.1
CC1=C[C@H]2O[C@@H]3[C@H](O)[C@@H](O)[C@](C)([C@@]2(CO)[C@H](O)C1=O)[C@]31CO1 960

Kindly review the next molecule as well.
Specify reported EC50 for the molecule shown: "CC(=O)OC[C@]12CCC(C)=C[C@H]1O[C@@H]1[C@H](O)[C@@H](OC(C)=O)[C@@]2(C)[C@]12CO2" 2.7

----------
tested on: Mus musculus; test: Toxicity in ip dosed mouse relative to roridin A; type: organism-based; settings: in vivo
value_type: Activity

Worked examples follow.
CC(=O)OC[C@]12C[C@H](OC(=O)CC(C)C)C(C)=C[C@H]1O[C@@H]1[C@H](O)[C@@H](O)[C@@]2(C)[C@]12CO2 9
CC1=C[C@H]2O[C@@H]3C[C@H]4OC(=O)/C=C\C=C\C(=O)OCC[C@@H](C)[C@H](O)C(=O)OC[C@@]2(CC1)[C@]4(C)[C@]31CO1 1.5
CC(=O)OC[C@]12C[C@H](O)C(C)=C[C@H]1O[C@@H]1[C@H](O)[C@@H](OC(C)=O)[C@@]2(C)[C@]12CO2 0.5
CC1=C[C@H]2O[C@@H]3C[C@@H]4OC(=O)/C=C/C=C/COCC/C([C@@H](O)[C@H](C)O)=C/C(=O)OC[C@@]2(CC1)[C@]4(C)[C@]31CO1 1
CC1=C[C@H]2O[C@@H]3[C@H](O)C[C@](C)([C@@]2(CO)[C@H](O)C1=O)[C@]31CO1 4

Using known records, supply Activity for "CC(=O)OC[C@]12C[C@H](OC(=O)CC(C)C)C(C)=C[C@H]1O[C@@H]1[C@H](O)[C@@H](OC(C)=O)[C@@]2(C)[C@]12CO2" 3

Supply recorded Activity for "CC(=O)OC[C@]12CCC(C)=C[C@H]1O[C@@H]1[C@H](O)[C@@H](OC(C)=O)[C@@]2(C)[C@]12CO2" here. 23

----------
system: K562; assay: Cytotoxicity against human K562 cells by MTT assay; format: functional, cell-based
value_type: EC50 (nM)
Quick note: give the figure in nM, leave out the unit.

Guide cases for EC50, answers given:
compound	EC50 / nM
CC1=C[C@H]2O[C@@H]3[C@H](O)C[C@](C)([C@@]2(CO)[C@H](O)C1=O)[C@]31CO1 [DEOXYNIVALENOL]	1010
CC(=O)OC[C@]12C[C@H](OC(=O)CC(C)C)C(C)=C[C@H]1O[C@@H]1[C@H](O)[C@@H](O)[C@@]2(C)[C@]12CO2 [HT-2 TOXIN]	47.1

Next, consider the following compound.
Please give measured EC50 of the following entry: CC(=O)OC[C@]12C[C@H](O)C(C)=C[C@H]1O[C@@H]1[C@H](O)[C@@H](OC(C)=O)[C@@]2(C)[C@]12CO2 [NEOSOLANIOL] 392
